Each record here notes measured pKd.
- Target Or Test System: T1, c-Met ECD/Fc (R&D Systems #358 MT), human (human, UniProt P08581 25-932)
- T1 construct: extracellular domain; Bought fusion protein; also called c-Met ECD-Fc (human); human Met ECD-Fc; not shown: Fc part of the bought fusion protein
- T1 sequence (P08581 25-932): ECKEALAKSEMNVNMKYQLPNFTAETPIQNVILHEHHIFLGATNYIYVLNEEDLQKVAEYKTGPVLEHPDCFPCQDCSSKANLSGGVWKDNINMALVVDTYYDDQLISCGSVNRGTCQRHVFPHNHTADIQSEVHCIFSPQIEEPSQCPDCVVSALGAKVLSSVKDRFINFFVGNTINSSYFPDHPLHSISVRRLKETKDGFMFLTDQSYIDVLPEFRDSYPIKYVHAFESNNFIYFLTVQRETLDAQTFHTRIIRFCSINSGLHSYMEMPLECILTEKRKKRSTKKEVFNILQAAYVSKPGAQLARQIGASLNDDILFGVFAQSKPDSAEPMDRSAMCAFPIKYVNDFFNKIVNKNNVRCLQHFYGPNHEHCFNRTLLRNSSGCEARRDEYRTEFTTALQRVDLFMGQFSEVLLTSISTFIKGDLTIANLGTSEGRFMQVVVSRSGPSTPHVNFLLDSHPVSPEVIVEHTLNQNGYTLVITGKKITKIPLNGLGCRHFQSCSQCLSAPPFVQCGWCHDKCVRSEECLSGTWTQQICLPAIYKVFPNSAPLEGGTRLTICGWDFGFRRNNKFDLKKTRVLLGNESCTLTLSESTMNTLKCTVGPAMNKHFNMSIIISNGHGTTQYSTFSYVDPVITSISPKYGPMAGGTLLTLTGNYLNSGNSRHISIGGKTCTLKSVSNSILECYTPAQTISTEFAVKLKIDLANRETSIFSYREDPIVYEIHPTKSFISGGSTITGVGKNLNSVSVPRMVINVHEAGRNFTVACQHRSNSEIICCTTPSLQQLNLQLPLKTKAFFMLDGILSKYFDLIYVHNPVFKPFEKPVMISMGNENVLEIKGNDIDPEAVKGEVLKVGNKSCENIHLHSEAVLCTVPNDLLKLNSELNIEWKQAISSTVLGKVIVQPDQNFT
- Method: SPR (BIACORE 3000), human c-Met ECD-Fc immobilized, antibody injected, 1:1 model
Remember, pKd is on a log scale: it is -log10 of the molar concentration.

Solved cases below.
- Binder: "anti-c-Met monoclonal antibody 13.3.2L-A91T, H-E42K, S97T (antibody, human IgG2, kappa, V domains shown, positions 42, 97, 14 and 91 count from the N-terminal amino acid and may not count on the entry with its leader) VH: QVQLVQSGAEVKKPGASVKVSCKASGYTFTSYGFSWVRQAPGQGLEWMGWISASNGNTYYAQKLQGRVTMTTDTSTSTAYMELRSLRSDDTAVYYCARVYADYADYWGQGTLVTVSS VL: DIQMTQSPSSVSASVGDRVTITCRASQGINTWLAWYQQKPGKAPKLLIYAASSLKSGVPSRFSGSGSGTDFTLTISSLQPEDFATYYCQQANSFPLTFGGGTKVEIKR"
  Test Result: 9.70
- Binder: "anti-c-Met monoclonal antibody 8.70.2 (antibody, V domains shown, Human IgG2 kappa; also called hybridoma 8.70.2 (LN 15885); PTA-5028) VH: QLQLQESGPGLVKPSETLSLTCTVSGGSISSSSYYGGWIRQPPGKGLDWIGSIYYSGNTYYNPSLKSRVTISVDTSKNQFSLKLSSVTAADTAVYYCARHSWDYFDYWDQGTLVTVSS VL: DIQMTQSPSSVSASVGDRVTITCRASQGISSWLAWYQQKPGKAPKLLIYAASSLQSGVPSRFSGSGSGTDFTLTISSLQSEDFATYYCQQANSFPITFGPGTKVEIKR"
  Test Result: 9.48
- Binder: "anti-c-Met monoclonal antibody 9.1.2 (antibody, V domains shown, Human IgG2 kappa; also called hybridoma 9.1.2 (LN 15884); PTA-5027) VH: QVQLQESGPGLVKPSQTLSLTCTVSGGSISSGGYYWSWIRQHPGKGLEWIGYIYYSGSTYYNPSLKSRVTISVDTSKNQFSLKLSSVTAADTAVYYCARDGPLGYCSSTSCPVTGEYYYYGMDVWGQGTTVTVSS VL: EIVLTQSPGTLSLSPGERATLSCRASQSVSNNYLAWYQQKPGQAPRLLIFGASSRATGIPDRFSGSGSGTDFTLTISRLEPEDFAVYYCQQYDISPMYSFGQGTKLEMKR"
  Test Result: 9.09

# next binder below
Can you share its pKd? I mean this binder: anti-c-Met monoclonal antibody 13.3.2 (antibody, human IgG2, kappa, V domains shown, Human IgG2 kappa from XenoMouse hybridoma; The variable positions X2, X4, X6, X8 correspond to positions 42, 97, 14 (heavy) and 91 (light), where position one is the N-terminal amino acid; these numbers may not count on the entry with its leader; also called PTA-5026) VH: QVQLVQSGAEVKKPGASVKVSCEASGYTFTSYGFSWVRQAPGQGLEWMGWISASNGNTYYAQKLQGRVTMTTDTSTSSAYMELRSLRSDDTAVYYCARVYADYADYWGQGTLVTVSS VL: DIQMTQSPSSVSASVGDRVTITCRASQGINTWLAWYQQKPGKAPKLLIYAASSLKSGVPSRFSGSGSGADFTLTISSLQPEDFATYYCQQANSFPLTFGGGTKVEIKR
9.66
